Hi, quick share: literature IC50 data for Protein mono-ADP-ribosyltransferase PARP4 (Homo sapiens, UniProt Q9UKK3), several sources combined.
result type: IC50

compound	experimental system	result type	result
CC(C)c1ccc(C2NC(=O)c3ccccc3N2)cc1 (stereo unspecified)	Protein mono-ADP-ribosyltransferase PARP4 (Homo sapiens, UniProt Q9UKK3)	IC50	> 100 µM
COc1ccc(C(=O)Nc2ccc(C(=O)N(c3ccncn3)c3ccccc3Cl)cc2)cc1	Protein mono-ADP-ribosyltransferase PARP4 (Homo sapiens, UniProt Q9UKK3)	IC50	> 100 µM
O=C1NCC2c3c(cccc31)CCN2C(=O)Cc1cccnc1 (stereo unspecified)	Protein mono-ADP-ribosyltransferase PARP4 (Homo sapiens, UniProt Q9UKK3)	IC50	0.44 µM
NC(=O)c1ccc(OCC2CCC2)cc1	Protein mono-ADP-ribosyltransferase PARP4 (Homo sapiens, UniProt Q9UKK3)	IC50	> 100 µM
O=c1[nH]c(N2CCN(Cc3ccncc3)CC2)nc2c1CCCC2	Protein mono-ADP-ribosyltransferase PARP4 (Homo sapiens, UniProt Q9UKK3)	IC50	33 µM
COc1ccc(C2(CNC(=O)c3ccc(NC(=O)c4ccco4)cc3Cl)CCOCC2)cc1	Protein mono-ADP-ribosyltransferase PARP4 (Homo sapiens, UniProt Q9UKK3)	IC50	> 100 µM
